All figures here come from patent US20220177587A1.

Target: CD28 (Homo sapiens, UniProt P10747)
Test: Flow binding to Jurkat/IL2 reporter cells (CD28)
Set-up: host or cells: Jurkat cells expressing an IL-2-luciferase reporter
Details: Table E23; CD80 IgV-Fc (inert) at 33.3 nM; Jurkat (CD28)
Give YES when the value for CD28 MFI at 33.3 nM is at least 5000. Give NO when it is less.

Past entries and their recorded results:
- molecule: "H18L/E35D/M47V/V68M/A71G/D90G (protein, UniProt P33681 35-288, looked up, variant H18L E35D M47V V68M A71G D90G) T-lymphocyte activation …: VIHVTKEVKEVATLSCGLNVSVEELAQTRIYWQKDKKMVLTMMSGDVNIWPEYKNRTIFDITNNLSIMILGLRPSDEGTYECVVLKYEKGAFKREHLAEVTLSVKADFPTPSISDFEIPTSNIRRIICSTSGGFPEPHLSWLENGEELNAINTTVSQDPETELYAVSSKLDFNMTTNHSFMCLIKYGHLRVNQTFNWNTTKQEHFPDNLLPSWAITLISVNGIFVICCLTYCFAPRCRERRRNERLRRESVRPV"
  category-label: "YES"
- molecule: "H18Y/E35D/M47V/V68M/A71G (protein, UniProt P33681 35-288, looked up, variant H18Y E35D M47V V68M A71G) T-lymphocyte activation …: VIHVTKEVKEVATLSCGYNVSVEELAQTRIYWQKDKKMVLTMMSGDVNIWPEYKNRTIFDITNNLSIMILGLRPSDEGTYECVVLKYEKDAFKREHLAEVTLSVKADFPTPSISDFEIPTSNIRRIICSTSGGFPEPHLSWLENGEELNAINTTVSQDPETELYAVSSKLDFNMTTNHSFMCLIKYGHLRVNQTFNWNTTKQEHFPDNLLPSWAITLISVNGIFVICCLTYCFAPRCRERRRNERLRRESVRPV"
  category-label: "NO"
- molecule: "H18V/A26P/E35D/M47L/V68M/A71G (protein, UniProt P33681 35-288, looked up, variant H18V A26P E35D M47L V68M A71G) T-lymphocyte activation …: VIHVTKEVKEVATLSCGVNVSVEELPQTRIYWQKDKKMVLTMMSGDLNIWPEYKNRTIFDITNNLSIMILGLRPSDEGTYECVVLKYEKDAFKREHLAEVTLSVKADFPTPSISDFEIPTSNIRRIICSTSGGFPEPHLSWLENGEELNAINTTVSQDPETELYAVSSKLDFNMTTNHSFMCLIKYGHLRVNQTFNWNTTKQEHFPDNLLPSWAITLISVNGIFVICCLTYCFAPRCRERRRNERLRRESVRPV"
  category-label: "NO"
- molecule: "H18Y/A26P/E35D/M47V/V68M/A71G (protein, UniProt P33681 35-288, looked up, variant H18Y A26P E35D M47V V68M A71G) T-lymphocyte activation …: VIHVTKEVKEVATLSCGYNVSVEELPQTRIYWQKDKKMVLTMMSGDVNIWPEYKNRTIFDITNNLSIMILGLRPSDEGTYECVVLKYEKDAFKREHLAEVTLSVKADFPTPSISDFEIPTSNIRRIICSTSGGFPEPHLSWLENGEELNAINTTVSQDPETELYAVSSKLDFNMTTNHSFMCLIKYGHLRVNQTFNWNTTKQEHFPDNLLPSWAITLISVNGIFVICCLTYCFAPRCRERRRNERLRRESVRPV"
  category-label: "YES"

Now turn to the next molecule.
Query: Is reported CD28 MFI at 33.3 nM greater than or equal to 5000 here: H18F/A26P/E35D/M47I/V68M/A71G/D90G (protein, UniProt P33681 35-288, looked up, variant H18F A26P E35D M47I V68M A71G D90G) T-lymphocyte activation …: VIHVTKEVKEVATLSCGFNVSVEELPQTRIYWQKDKKMVLTMMSGDINIWPEYKNRTIFDITNNLSIMILGLRPSDEGTYECVVLKYEKGAFKREHLAEVTLSVKADFPTPSISDFEIPTSNIRRIICSTSGGFPEPHLSWLENGEELNAINTTVSQDPETELYAVSSKLDFNMTTNHSFMCLIKYGHLRVNQTFNWNTTKQEHFPDNLLPSWAITLISVNGIFVICCLTYCFAPRCRERRRNERLRRESVRPV
Result: NO
